molecular target: Fatty acid synthase (Homo sapiens); test: inhibition of human FAS-TE enzyme activity – biochemical, kinetic fluorescence intensity, dose response (AID 624326); type: functional;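 further: rate of fluorescence rise from hydrolysis of a fluorogenic O-methyl fluorescein ester substrate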
Sequence (P49327 whole entry): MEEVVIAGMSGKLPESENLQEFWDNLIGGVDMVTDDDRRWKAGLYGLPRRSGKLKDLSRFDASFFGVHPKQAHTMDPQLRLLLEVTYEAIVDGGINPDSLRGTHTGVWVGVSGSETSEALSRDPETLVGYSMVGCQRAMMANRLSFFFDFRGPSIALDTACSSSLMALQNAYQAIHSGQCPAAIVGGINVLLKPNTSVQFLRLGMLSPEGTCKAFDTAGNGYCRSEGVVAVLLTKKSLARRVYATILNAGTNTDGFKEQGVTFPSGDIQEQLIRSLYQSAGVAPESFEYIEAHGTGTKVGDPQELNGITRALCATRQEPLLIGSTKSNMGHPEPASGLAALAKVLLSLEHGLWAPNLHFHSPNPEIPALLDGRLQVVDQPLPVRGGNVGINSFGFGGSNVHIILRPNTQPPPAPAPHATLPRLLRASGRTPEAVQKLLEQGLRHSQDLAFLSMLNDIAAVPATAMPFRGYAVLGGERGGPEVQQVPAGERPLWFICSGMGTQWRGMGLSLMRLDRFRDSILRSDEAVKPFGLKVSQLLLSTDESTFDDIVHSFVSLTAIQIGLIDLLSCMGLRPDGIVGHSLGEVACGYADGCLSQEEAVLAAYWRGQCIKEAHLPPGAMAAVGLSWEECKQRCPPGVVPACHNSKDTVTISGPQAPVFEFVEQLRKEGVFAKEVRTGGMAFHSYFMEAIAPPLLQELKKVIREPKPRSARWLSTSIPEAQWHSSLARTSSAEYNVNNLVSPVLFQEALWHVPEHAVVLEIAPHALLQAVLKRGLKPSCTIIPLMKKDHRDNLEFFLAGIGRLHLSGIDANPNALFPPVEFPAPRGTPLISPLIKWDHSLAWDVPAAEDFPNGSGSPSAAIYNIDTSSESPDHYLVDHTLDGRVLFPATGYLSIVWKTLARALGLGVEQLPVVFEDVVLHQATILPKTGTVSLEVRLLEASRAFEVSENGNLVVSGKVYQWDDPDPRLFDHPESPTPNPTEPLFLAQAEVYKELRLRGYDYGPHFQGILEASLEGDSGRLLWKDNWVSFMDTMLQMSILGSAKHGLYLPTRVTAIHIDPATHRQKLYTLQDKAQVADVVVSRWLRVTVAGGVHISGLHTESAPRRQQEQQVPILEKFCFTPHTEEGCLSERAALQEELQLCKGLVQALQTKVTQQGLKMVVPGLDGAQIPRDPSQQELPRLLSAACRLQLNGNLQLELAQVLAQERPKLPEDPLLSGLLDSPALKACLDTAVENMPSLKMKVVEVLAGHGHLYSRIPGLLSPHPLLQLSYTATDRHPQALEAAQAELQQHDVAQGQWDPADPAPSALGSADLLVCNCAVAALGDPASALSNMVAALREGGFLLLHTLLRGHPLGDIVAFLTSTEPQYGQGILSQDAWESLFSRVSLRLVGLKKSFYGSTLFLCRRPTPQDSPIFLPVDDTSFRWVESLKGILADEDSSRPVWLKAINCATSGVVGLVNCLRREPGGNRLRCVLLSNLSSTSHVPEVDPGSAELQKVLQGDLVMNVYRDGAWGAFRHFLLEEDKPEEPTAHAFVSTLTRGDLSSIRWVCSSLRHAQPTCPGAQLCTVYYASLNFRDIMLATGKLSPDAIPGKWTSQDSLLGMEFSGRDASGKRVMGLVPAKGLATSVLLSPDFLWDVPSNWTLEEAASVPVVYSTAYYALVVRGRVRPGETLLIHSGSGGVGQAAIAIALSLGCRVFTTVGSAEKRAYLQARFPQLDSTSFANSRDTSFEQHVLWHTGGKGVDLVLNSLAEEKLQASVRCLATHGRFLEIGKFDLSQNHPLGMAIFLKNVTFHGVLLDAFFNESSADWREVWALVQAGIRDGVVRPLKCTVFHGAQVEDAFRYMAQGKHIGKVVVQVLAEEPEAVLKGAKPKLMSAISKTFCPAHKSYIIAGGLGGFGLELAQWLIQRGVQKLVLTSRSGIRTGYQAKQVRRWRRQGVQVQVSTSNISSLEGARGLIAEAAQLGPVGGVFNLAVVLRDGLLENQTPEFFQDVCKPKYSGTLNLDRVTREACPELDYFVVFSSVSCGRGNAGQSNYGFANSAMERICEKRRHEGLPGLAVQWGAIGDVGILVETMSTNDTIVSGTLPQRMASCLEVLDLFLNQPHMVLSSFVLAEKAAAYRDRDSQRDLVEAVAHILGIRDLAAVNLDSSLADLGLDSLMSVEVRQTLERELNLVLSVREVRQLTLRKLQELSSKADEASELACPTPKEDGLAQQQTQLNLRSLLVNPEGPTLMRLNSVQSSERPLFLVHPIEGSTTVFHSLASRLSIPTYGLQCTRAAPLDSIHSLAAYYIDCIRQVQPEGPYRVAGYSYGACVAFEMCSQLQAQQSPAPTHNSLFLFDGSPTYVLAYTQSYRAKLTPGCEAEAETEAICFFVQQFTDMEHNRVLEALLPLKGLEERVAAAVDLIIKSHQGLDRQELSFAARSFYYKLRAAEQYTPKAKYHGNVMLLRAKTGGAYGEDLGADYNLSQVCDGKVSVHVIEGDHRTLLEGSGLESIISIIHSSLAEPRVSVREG
Calls of active or inactive are those of the source.
Measured IC50 of individual entries

// below: answered compounds
O=C1CC(c2cccc([N+](=O)[O-])c2)c2cc3c(cc2N1)CCC3 (stereo unspecified) = 15.9 µM (active)
COC(=O)c1cc(C(=O)OCC(=O)NC2CCCC2)cc([N+](=O)[O-])c1 = 9.42 µM (active)
CC1(C(=O)NS(=O)(=O)c2ccc(C#N)cc2)CCN1C(=O)Cc1ccc(Cl)cc1Cl (stereo unspecified) = 5.77 µM (active)
O=C(Nc1cccc([N+](=O)[O-])c1)N1CCc2ccccc2C1 = 6.26 µM (active)
CC(C)(CNC(=O)c1ccc([N+](=O)[O-])c(Cl)c1)CNC(=O)c1ccc([N+](=O)[O-])c(Cl)c1 = 6.06 µM (active)

Please examine the following record next.
Task: Enter IC50 (test system Fatty acid synthase (Homo sapiens)) for Cc1cc(Cl)ccc1NC(=O)COC(=O)c1cc([N+](=O)[O-])ccc1N1CCOCC1
Result: 2.13 µM (active)

----------
Biological target: Short transient receptor potential channel 4 (Mus musculus)
Sequence (Q9QUQ5 whole entry): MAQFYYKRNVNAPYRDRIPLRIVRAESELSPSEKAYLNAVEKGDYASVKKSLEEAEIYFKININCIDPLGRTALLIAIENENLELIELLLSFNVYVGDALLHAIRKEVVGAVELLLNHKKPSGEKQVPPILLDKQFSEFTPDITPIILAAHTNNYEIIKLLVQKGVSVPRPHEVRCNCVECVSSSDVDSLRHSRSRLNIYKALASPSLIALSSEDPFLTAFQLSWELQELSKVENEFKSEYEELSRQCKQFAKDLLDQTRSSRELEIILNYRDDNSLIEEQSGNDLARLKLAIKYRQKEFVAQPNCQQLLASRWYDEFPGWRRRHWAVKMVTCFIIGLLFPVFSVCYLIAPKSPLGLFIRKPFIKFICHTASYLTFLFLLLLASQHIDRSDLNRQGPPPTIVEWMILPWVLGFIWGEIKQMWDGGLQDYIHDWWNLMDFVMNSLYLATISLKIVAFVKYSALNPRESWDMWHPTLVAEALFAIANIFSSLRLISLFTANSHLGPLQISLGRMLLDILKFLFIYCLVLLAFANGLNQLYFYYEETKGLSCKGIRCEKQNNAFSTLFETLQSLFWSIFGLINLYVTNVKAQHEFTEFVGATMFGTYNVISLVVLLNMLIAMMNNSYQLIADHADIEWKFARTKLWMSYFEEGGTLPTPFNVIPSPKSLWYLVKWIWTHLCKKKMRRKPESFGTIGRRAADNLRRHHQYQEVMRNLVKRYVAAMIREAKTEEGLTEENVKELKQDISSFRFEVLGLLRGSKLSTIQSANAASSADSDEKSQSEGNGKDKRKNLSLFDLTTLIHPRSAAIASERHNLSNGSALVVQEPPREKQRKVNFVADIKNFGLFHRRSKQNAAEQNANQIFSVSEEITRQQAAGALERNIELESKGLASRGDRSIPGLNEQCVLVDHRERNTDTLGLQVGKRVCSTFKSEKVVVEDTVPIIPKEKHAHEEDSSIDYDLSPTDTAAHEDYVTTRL
Assay: block of DAMGO-driven TRPC4 calcium entry – cell-based, HEK293 TRPC4/mu-opioid, Fluo-4 calcium, dose response (AID 434942);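 further: potency of inhibitors blocking the TRPC4 calcium response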
Format: functional
The source made the active and inactive calls.
Reported values of EC50 for individual entries

Example compounds with recorded EC50:
Oc1c(CN2CCCCC2)cc(Br)c2cccnc12 = 4.22 µM (active)
Cc1nc2ccccc2n1CC(O)COc1ccccc1Cl (stereo not drawn) = 3.35 µM (active)
COC(=O)CSc1nnc2n(-c3ccc(OC)cc3)c(=O)c3c4c(sc3n12)CCCCC4 = 1.5 µM (active)
CCOc1ccc(-c2cc(NC(=O)c3c(F)cccc3F)c(C(=O)O)s2)cc1 = 2.99 µM (active)

Task: Input COc1ccc(Br)cc1CNC(C)c1ccccc1 (stereo not drawn) , output reported EC50.
Result: 5.31 µM (active)

Task: Give EC50 for the following compound: Cc1nc2c3cc(Cl)ccc3n(CCN3CCCCC3)c2s1
Result: 4.22 µM (active)

Task: // Input: COc1ccc(NC(=O)c2cccc(N3C(=O)C4CC=C(C)CC4C3=O)c2)c(OC)c1 (stereo not drawn) . Output its EC50 only.
Result: 0.0173 µM (active)

Task: Complete the entry with EC50 for O=C(Nc1ccccc1)N1CCN2C(=O)c3ccccc3C12c1ccccc1 (stereo not drawn)
Result: 2.11 µM (active)

These entries and their values trace back to ChEMBL document CHEMBL1201862.
